# Test system: DLD
# Method summary: Caspase cascade activation (DEVD-R110 fluorogenic substrate) in DLD cells
# Assay type: cell-based, Human
# Protocol conditions: ratio of net RFU of compound to control, 24 h incubation, 0.16 to 10 μM final
Reported Caspase activity (Ratio) DLD values follow for various compounds
Reported property: Caspase activity (Ratio) DLD

[[record]]
compound = "COC(=O)/C(C)=C\\CC12OC(C)(C)C3CC(C1=O)C(N1CCOCC1)C1C(=O)c4c(O)c5c(c(CC=C(C)C)c4OC132)OC(C)(CCC(O)C(C)(C)O)C=C5 (stereo not shown)"
reported_property = "Caspase activity (Ratio) DLD"
quantitative_result = 9.2

[[record]]
compound = "CC(C)=CCCC1(C)C=Cc2c(O)c3c(c(CC=C(C)C)c2O1)OC12C(=CC4CC1C(C)(C)OC2(C/C=C(/C)C(=O)OCCN1CCOCC1)C4=O)C3=O (stereo not shown) [Example 1, 2-(Morpholin-4-yl)-ethyl gambogate]"
reported_property = "Caspase activity (Ratio) DLD"
quantitative_result = 7.6

[[record]]
compound = "COC(=O)/C(C)=C\\CC12OC(C)(C)C3CC(C=C4C(=O)c5c(O)c6c(c(CC=C(C)C)c5OC431)OC(C)(CCC(O)C(C)(C)O)C=C6)C2=O (stereo not shown) [Example 5, Methyl 37,38-Dihydroxy-gambogate]"
reported_property = "Caspase activity (Ratio) DLD"
quantitative_result = 7.2

[[record]]
compound = "CC(C)=CCCC1(C)C=Cc2c(O)c3c(c(CC=C(C)C)c2O1)OC12C(=CC4CC1C(C)(C)OC2(C/C=C(/C)C(=O)NCCCN1CCN(C)CC1)C4=O)C3=O (stereo not shown)"
reported_property = "Caspase activity (Ratio) DLD"
quantitative_result = 5.8

[[record]]
compound = "CC(C)=CCCC1(C)C=Cc2c(O)c3c(c(CC=C(C)C)c2O1)OC12C(=CC4CC1C(C)(C)OC2(C/C=C(/C)C(=O)NCCCN1CCOCC1)C4=O)C3=O (stereo not shown) [Example 4, N-(3-Morpholin-4-yl-propyl)gambogamide]"
reported_property = "Caspase activity (Ratio) DLD"
quantitative_result = 7.2

[[record]]
compound = "CC(C)=CCCC1(C)C=Cc2c(O)c3c(c(CC=C(C)C)c2O1)OC12C(=CC4CC1C(C)(C)OC2(C/C=C(/C)C(=O)OCCN(C)C)C4=O)C3=O (stereo not shown) [Example 2, 2-Dimethylaminoethyl gambogate]"
reported_property = "Caspase activity (Ratio) DLD"
quantitative_result = 7.2

[[record]]
compound = "COC(=O)/C(C)=C\\CC12OC(C)(C)C3CC(C1=O)C(N1CCOCC1)C1C(=O)c4c(O)c5c(c(CC=C(C)C)c4OC132)OC(C)(CCC=O)C=C5 (stereo not shown)"
reported_property = "Caspase activity (Ratio) DLD"
quantitative_result = 5.8

